Data credit: ChEMBL document CHEMBL1145858

# LDL-C listing for each entry below
System: Cricetinae gen. sp.
Experiment: […] effect on LDL cholesterol (LDL-C) level in fat-fed hamsters treated for 10 days at 200 umol/kg/day
Type: functional, Cricetulus griseus
PROPERTY_NAME: LDL-C (%)

C=CCN(C)CCCCCCOc1ccc2c(-c3ccc(Br)cc3)nsc2c1.O=C(O)/C=C/C(=O)O :: -33
C=CCN(C)CCCCCCOc1ccc2c(c1)CON=C2c1ccc(Br)cc1.O=C(O)/C=C/C(=O)O :: -3
C=CCN(C)CCCCCCOc1ccc(C(=O)c2ccc(F)cc2)cc1.Cl :: -24
C=CCN(C)CCCCCCOc1ccc(C(=O)c2ccc(Br)cc2)cc1.O=C(O)/C=C/C(=O)O :: -25
C=CCN(C)CCCCCCOc1ccc(C(=O)c2ccc(Br)cc2)c(F)c1.O=C(O)/C=C/C(=O)O :: -27
Br.C=CCN(C)CCCCCCOc1ccc(C(=O)c2ccccc2)cc1 :: -12
C=CCN(C)CCCCCCOc1ccc2c(-c3ccc(Br)cc3)nccc2c1.Cl :: -14

###

Target: Lanosterol synthase (Homo sapiens, UniProt P48449)
Sequence (P48449 whole entry): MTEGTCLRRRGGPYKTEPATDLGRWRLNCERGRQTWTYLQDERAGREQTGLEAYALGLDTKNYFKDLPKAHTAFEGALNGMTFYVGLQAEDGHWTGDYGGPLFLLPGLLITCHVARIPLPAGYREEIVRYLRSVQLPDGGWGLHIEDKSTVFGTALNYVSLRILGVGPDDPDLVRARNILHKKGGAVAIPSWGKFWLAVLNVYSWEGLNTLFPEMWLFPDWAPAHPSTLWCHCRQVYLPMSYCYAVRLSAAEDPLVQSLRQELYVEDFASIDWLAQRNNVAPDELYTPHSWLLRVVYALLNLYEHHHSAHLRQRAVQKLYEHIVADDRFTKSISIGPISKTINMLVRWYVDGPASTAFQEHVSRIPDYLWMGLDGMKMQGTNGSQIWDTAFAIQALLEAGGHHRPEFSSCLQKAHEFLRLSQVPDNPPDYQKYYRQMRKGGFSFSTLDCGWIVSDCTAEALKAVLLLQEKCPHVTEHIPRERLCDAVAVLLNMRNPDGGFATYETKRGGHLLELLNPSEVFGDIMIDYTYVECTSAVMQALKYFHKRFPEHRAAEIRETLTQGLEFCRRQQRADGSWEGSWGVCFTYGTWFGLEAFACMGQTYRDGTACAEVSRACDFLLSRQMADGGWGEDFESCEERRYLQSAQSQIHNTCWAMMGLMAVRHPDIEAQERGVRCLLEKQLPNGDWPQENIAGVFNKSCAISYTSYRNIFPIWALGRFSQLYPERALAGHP
Assay: In vitro inhibition of human 2,3-oxidosqualene cyclase.
PROPERTY_NAME: IC50 (nM)

C=CCN(C)CCCCCCOc1ccc(C(=O)c2ccc([N+](=O)[O-])cc2)cc1 :: 1.9

###

Assay: physchem
PROPERTY_NAME: pKa

CN(CCCO)CCCCCCOc1ccc(C(=O)c2ccc(Br)cc2)cc1 :: 9.05
C=CCN(C)CCCCCCOc1ccc(C(=O)c2ccc(Br)cc2)cc1.O=C(O)/C=C/C(=O)O :: 8.18
CN(CCCCCCOc1ccc(C(=O)c2ccc(Br)cc2)cc1)CC1CC1 :: 9.37
CN(CCCCCCOc1ccc(C(=O)c2ccc(Br)cc2)cc1)C1CC1 :: 7.48

###

Molecular target: UniProt:P48449
PROPERTY_NAME: IC50 (nM)

CN(CCCCCCOc1ccc(C(=O)c2ccc(Br)cc2)cc1)C1CC1 :: 35.3
C=CCN(C)CCCCCCOc1ccc(C(=O)c2ccc(Br)cc2)c(O)c1 :: 6.3
C=CCN(C)CCCCCCOc1ccc2c(-c3ccc(Br)cc3)csc2c1 :: 5.6
CN(CCCO)CCCCCCOc1ccc(C(=O)c2ccc(Br)cc2)cc1 :: 15.7
Br.C=CCN(C)CCCCCCOc1ccc(C(=O)c2ccccc2)cc1 :: 22.5
C=CCN(C)CCCCCCOc1ccc2c(c1)CCN=C2c1ccc(Br)cc1 :: 7.9
C=CCN(C)CCCCCCOc1ccc2c(c1)OCC=C2c1ccc(Br)cc1 :: 11.4
C=CCN(C)CCCCCCOc1ccc(C(=O)c2ccc(Br)cc2)c(NC)c1 :: 4.1
C=CCN(C)CCCCCCOc1ccc(C(=O)c2ccc(Br)cc2)c(SC)c1 :: 6.2
C=CCN(C)CCCCCCOc1ccc(C(=O)c2ccc(Br)cc2)cn1 :: 8.7
C=CCN(C)CCCCCCOc1ccc(C(=O)c2ccc(F)cc2)cc1.Cl :: 6.7
C=CCN(C)CCCCCCOc1ccc2c(c1)S(=O)(=O)N=C2c1ccc(Br)cc1 :: 7.8
C=CCN(C)CCCCCCOc1ccc(C(=O)c2ccc(Br)cc2)c(OC)c1 :: 4.6
